assay: Approximate solubility screening in organic solvents at ambient temperature; format: physicochemical; settings: organic solvent or mixture, thermodynamic from solid, MeOH, read-out: S (solubility)
quantity_name: solubility (mg/mL)
Note: unit mg/mL is implicit; provide only the numeric part.

// COc1cc(NC(C(=O)c2c[nH]c3ccc(OC(F)(F)F)cc23)c2ccc(Cl)cc2OC)cc(S(C)(=O)=O)c1 (stereo not shown) : solubility value = 42

----------
Assay: Approximate solubility screening in organic solvents at ambient temperature
Format: physicochemical
Conditions: organic solvent or mixture, thermodynamic from solid, Acetone/H2O (9/1, v/v), read-out: S (solubility)
Description: To screen appropriate solvent for spray drying, approximate solubility of starting material was estimated in different organic solvents at ambient temperature.
quantity_name: solubility

// COc1cc(NC(C(=O)c2c[nH]c3ccc(OC(F)(F)F)cc23)c2ccc(Cl)cc2OC)cc(S(C)(=O)=O)c1 (stereo not shown) : solubility value = > 100 mg/mL
